Listing: Kd of selected binders
testedSystem: recombinant factor H binding protein (FHbp) ID 1 (Neisseria meningitidis serogroup B …, UniProt Q9JXV4)
Sequence (Q9JXV4 20-274): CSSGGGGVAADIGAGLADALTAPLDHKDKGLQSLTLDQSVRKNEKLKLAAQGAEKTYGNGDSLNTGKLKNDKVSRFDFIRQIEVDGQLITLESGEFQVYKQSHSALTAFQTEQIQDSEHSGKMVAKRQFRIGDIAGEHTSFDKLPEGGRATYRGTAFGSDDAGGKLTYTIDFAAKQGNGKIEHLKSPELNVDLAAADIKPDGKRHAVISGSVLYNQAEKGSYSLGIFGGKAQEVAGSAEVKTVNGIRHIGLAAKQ
procedureText: SPR
recordedMetric: Kd (nM)

INSERT INTO results (binder, recordedmetric, unitssymbol, valuemeasured) VALUES
  ('human anti-FHbp Fab 9B (Fab, V domains shown) VH: EVQLVQSGAELKKPGESLKISCKASGYTFTNYWVVWVRQMPGEGLEWMGSIHPRDSDARYSLSFEGRVTFSVDKSTTTAYLQWSSLKVSDSAIYYCARLSQVSGWSPWVGPWGQGTLVTVSS VL: DIVMTQSPSSLSASVGDRVTITCRASQSISVSLNWYQQKPGKAPKVLIYAASRLQSGIPSRFSGSGSGSHFTLTISSLQPEDFATYYCQETYSDLMYTFGQGTKVEIK', 'Kd', 'nM', 0.019),
  ('control chimeric human-mouse anti-FHbp Fab 502 (Fab, V domains shown) VH: EVQLQESGPGLAKPSQTLSLTCSVTGYSITSDFWNWIRKFPGNKLEYMGYISYSGSTDYNPSLKSRISITRDTSKNQYYLQLNSVTAEDTATYYCARYFGSSYAMDHWGQGTSVTVSS VL: DIQMTQSPASLSASVGETVTITCRASGNIHNYLAWYQQKQGKSPQLLVYTAKTLAEGVPSRFSGSGSGTQFSLKINSLQPEDFGSYYCQHFWSTPWTFGGGTKLEIK', 'Kd', 'nM', 4.8),
  ('human anti-FHbp Fab 4B (Fab, V domains shown) VH: EVQLVESGGGLAQPGGSLRLSCVASGSTFGSYAIYWVRQAPGKGLEWVSGISGSGTKIDYADSVKGRFTISRDISKNTLYLQMNSLRAEDTAVYYCAKLGFFDYWGQGTQVTVSS VL: EIVLTQSPDTLSLSPGERATLSCRASQSVSTYLFWYQKKPGQAPRLLIFDASNRATGIPVRFSGSGSGTDFTLTISSLEPEDFAVYYCQQRSNWPQTFGGGTKVEIK', 'Kd', 'nM', 0.86);
